- tested-target: α1β2γ2S GABAA receptors (Homo sapiens, UniProt P14867+P47870)
- Construct: expressed in transfected cells; host or cells: Xenopus laevis oocytes injected with cRNA (pCMV cDNA templates)
- Sequence (P14867 28-456): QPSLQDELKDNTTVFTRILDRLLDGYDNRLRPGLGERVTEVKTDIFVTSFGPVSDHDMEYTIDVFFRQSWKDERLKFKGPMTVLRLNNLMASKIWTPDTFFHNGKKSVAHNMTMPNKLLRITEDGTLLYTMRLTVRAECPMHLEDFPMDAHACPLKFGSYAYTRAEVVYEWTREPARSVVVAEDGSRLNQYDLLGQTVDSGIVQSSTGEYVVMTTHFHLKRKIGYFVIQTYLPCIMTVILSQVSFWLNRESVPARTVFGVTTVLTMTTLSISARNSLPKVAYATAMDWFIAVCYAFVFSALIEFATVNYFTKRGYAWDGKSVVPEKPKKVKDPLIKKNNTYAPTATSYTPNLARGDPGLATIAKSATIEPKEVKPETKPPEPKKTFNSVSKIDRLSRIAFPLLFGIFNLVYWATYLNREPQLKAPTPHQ
- Sequence (P47870 26-512): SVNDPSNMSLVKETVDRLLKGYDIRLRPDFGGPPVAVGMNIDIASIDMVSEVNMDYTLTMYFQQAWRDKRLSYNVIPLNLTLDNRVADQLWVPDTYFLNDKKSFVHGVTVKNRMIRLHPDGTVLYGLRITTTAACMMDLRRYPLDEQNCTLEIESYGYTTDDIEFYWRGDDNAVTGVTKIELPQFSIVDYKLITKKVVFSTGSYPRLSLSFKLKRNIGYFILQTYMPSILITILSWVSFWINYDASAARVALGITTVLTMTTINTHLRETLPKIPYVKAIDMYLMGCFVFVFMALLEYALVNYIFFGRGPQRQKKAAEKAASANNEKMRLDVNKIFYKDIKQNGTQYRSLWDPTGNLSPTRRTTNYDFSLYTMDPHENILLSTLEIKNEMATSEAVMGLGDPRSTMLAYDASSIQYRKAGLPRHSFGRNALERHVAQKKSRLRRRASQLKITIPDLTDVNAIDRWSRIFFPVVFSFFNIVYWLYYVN
- Sequence (P18507 40-467 isoform P18507-1 partner limits assumed): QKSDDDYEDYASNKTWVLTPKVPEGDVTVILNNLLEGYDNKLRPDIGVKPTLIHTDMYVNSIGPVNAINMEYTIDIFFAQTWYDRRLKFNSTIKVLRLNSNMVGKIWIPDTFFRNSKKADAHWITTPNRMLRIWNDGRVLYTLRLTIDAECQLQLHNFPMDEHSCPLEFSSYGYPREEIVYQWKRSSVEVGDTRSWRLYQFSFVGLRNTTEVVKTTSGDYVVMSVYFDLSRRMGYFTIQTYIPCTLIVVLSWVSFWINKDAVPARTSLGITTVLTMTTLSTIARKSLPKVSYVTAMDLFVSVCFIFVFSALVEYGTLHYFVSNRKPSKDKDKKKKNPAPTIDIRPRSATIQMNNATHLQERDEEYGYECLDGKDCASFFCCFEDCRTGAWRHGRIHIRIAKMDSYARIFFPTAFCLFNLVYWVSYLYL
- method-notes: Two-microelectrode voltage clamp, IGABA modulation, α1β2γ2S
- Assay type: cell-based
- stated-conditions: 100 μM compound, GABA EC3–7, Xenopus laevis oocytes, mean ± SEM
result-type: activation at 100 µM (%)

>>> experimental_result("O=C(/C=C/C=C/c1ccc2c(c1)OCO2)Nc1ccc([N+](=O)[O-])cc1O")
1
>>> experimental_result("CN(C)C(=O)/C=C/C=C/c1ccc2c(c1)OCO2")
61
>>> experimental_result("O=C(c1ccccc1-c1ccc2c(c1)OCO2)N1CCCCC1")
34
>>> experimental_result("O=C(c1cccc2c(-c3ccc4c(c3)OCO4)cccc12)N1CCCCC1")
13
>>> experimental_result("O=C(/C=C/C=C/c1ccc2c(c1)OCO2)N(C1CCCCC1)C1CCCCC1")
13
>>> experimental_result("O=C(/C=C/C=C/c1ccc2c(c1)OCO2)NC12CC3CC(CC(C3)C1)C2")
-6
>>> experimental_result("O=C(/C=C/C=C/c1ccc2c(c1)OCO2)Nc1ccccc1O")
0
>>> experimental_result("COc1ccccc1N1CCN(C(=O)/C=C/C=C/c2ccc3c(c2)OCO3)CC1")
5
>>> experimental_result("CCCN(CCC)C(=O)/C=C/c1ccc2cc3c(cc2c1)OCO3")
74
>>> experimental_result("O=C(/C=C/C=C/c1ccc2c(c1)OCO2)N1CCOCC1")
0
>>> experimental_result("O=C(/C=C/C=C/c1ccc2c(c1)OCO2)Nc1cccnc1")
-7
>>> experimental_result("CCCCN(CCCC)C(=O)c1ccc(-c2ccc3c(c2)OCO3)s1")
51

----------
Catalogue of compounds with associated activation at 100 µM
- tested-target: α1β2γ2S GABAA receptors (Homo sapiens, UniProt P14867+P47870)
- Construct: expressed in transfected cells; host or cells: Xenopus laevis oocytes injected with cRNA (pCMV cDNA templates)
- method-notes: Two-microelectrode voltage clamp, IGABA modulation, α1β2γ2S
- Type: cell-based
- stated-conditions: 100 μM compound, GABA EC3–7, Xenopus laevis oocytes, mean ± SEM
result-type: activation at 100 µM (%)

>>> experimental_result("CCCCN(CCCC)C(=O)c1ccc(-c2ccc3c(c2)OCO3)cc1")
49
>>> experimental_result("CN1CCN(C(=O)/C=C/C=C/c2ccc3c(c2)OCO3)CC1")
-20
>>> experimental_result("CC(C)N(C(=O)/C=C/c1ccc2c(c1)OCO2)C(C)C")
66
